# System: OVCAR-5 ovarian
# procedure.text: NCI tumour cell line growth inhibition, 48 h
Record form. Attribute: TGI. Fill in for each entry.
Give bare numbers, in µM.

| compound | tgt | endpoint.result |
| --- | --- | --- |
| Cn1cc2c3ccccc3nc-2c2ccccc21 | OVCAR-5 ovarian | 6.84 |

For every listed record, write down its TGI.
1. CCCCCCCCCCCC[N+]12CC[N+](C)(CC1)CC2
2. COc1ccc(-c2c(-c3ccc(C#N)c(F)c3)nc(N3CCC(N)CC3)n(C)c2=O)cc1F
3. N#Cc1c(N)nc(N2CCOCC2)c(C#N)c1-c1c(Cl)cccc1Cl
4. COC(=O)C1(Cc2ccccc2)Cc2cc3c(cc2C1O)CCC3 (stereo not drawn)

1. 41
2. 44.2
3. 35.3
4. 30.4
